The reported numbers originate from PubChem BioAssay.

molecular target: E3 ubiquitin-protein ligase XIAP (Homo sapiens) (UniProt P98170); test: small molecules binding XIAP protein – biophysical, small-molecule microarray, fluorescence 635 nm, primary screen (AID 1181); conditions: higher = more signal
Sequence (P98170 whole entry, looked up): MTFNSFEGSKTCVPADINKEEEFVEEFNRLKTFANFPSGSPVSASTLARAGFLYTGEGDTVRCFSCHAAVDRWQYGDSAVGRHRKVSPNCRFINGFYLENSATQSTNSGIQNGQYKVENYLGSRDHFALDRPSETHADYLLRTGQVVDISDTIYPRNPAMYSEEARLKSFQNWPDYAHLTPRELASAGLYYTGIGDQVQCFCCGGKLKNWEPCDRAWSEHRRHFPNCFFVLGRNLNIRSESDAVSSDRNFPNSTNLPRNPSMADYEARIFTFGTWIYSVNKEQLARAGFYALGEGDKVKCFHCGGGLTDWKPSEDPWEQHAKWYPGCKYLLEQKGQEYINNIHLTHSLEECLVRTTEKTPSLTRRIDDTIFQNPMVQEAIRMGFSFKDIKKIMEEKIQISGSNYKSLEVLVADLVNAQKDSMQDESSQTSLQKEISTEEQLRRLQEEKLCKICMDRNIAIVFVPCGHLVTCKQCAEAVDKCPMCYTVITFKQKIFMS
Everything with composite z-score lower than 0.08 is condition not met; everything else, including exactly 0.08, is condition met.

{"Molecule": "CN(C)CCCC[C@@H]1NC(=O)[C@@H]2C[C@H](C(=O)NCCCCCN)[C@H](c3ccc(O)cc3)N2C1=O", "Tgt": "E3 ubiquitin-protein ligase XIAP (Homo sapiens) (UniProt P98170)", "Label Class": "condition not met"}
{"Molecule": "O=C1OCC=C[C@H]2OC34C=CCN(c5ccc(Cl)cc5)C(=O)[C@H]3N(CCCO)C(=O)[C@@H]4[C@@H]12 (some centres undefined)", "Tgt": "E3 ubiquitin-protein ligase XIAP (Homo sapiens) (UniProt P98170)", "Label Class": "condition not met"}
{"Molecule": "O=C1O[C@H](c2ccccc2)[C@H](c2ccccc2)N2[C@H]1[C@@H](C(=O)NC[C@H](O)c1ccccc1)[C@]1(C(=O)Nc3ccc(C#CC4(O)CCCCCC4)cc31)[C@H]2c1ccccc1OCCO", "Tgt": "E3 ubiquitin-protein ligase XIAP (Homo sapiens) (UniProt P98170)", "Label Class": "condition met"}
{"Molecule": "CN1C(=O)C2C(C1=O)C1C=C(c3ccc(CO)cc3)C2C(C2CC2)N1Cc1sc2ccccc2c1Cl (centres undefined)", "Tgt": "E3 ubiquitin-protein ligase XIAP (Homo sapiens) (UniProt P98170)", "Label Class": "condition met"}
{"Molecule": "CCOC(=O)C1=C[C@@H](C(C)(C)C)N(S(=O)(=O)c2ccc(C)cc2)[C@H]1c1ccc(Cl)c(Cl)c1", "Tgt": "E3 ubiquitin-protein ligase XIAP (Homo sapiens) (UniProt P98170)", "Label Class": "condition not met"}
{"Molecule": "COc1ccc(C#Cc2ccc3c(c2)[C@]2(C(=O)N3)[C@H](C(=O)N3CCN(c4ncccn4)CC3)[C@H]3C(=O)O[C@H](c4ccccc4)[C@H](c4ccccc4)N3[C@@H]2c2ccc(O)cc2)cc1", "Tgt": "E3 ubiquitin-protein ligase XIAP (Homo sapiens) (UniProt P98170)", "Label Class": "condition not met"}
{"Molecule": "COC(=O)[C@@]1(Cc2ccc(OC)cc2)[C@H]2c3cc(C(=O)N(C)C)n(CCSCCO)c3C[C@H]2CN1C(=O)c1ccccc1", "Tgt": "E3 ubiquitin-protein ligase XIAP (Homo sapiens) (UniProt P98170)", "Label Class": "condition not met"}
{"Molecule": "[N-]=[N+]=Nc1ccccc1[C@H]1OC(c2ccc(OCCCO)cc2)=N[C@@]1(CCS(=O)(=O)c1ccccc1)C(=O)N1CCOCC1", "Tgt": "E3 ubiquitin-protein ligase XIAP (Homo sapiens) (UniProt P98170)", "Label Class": "condition met"}
{"Molecule": "C=C(COC)C(=O)CC[C@@H](OC(=O)c1ccccc1-c1ccccc1C(=O)O)c1ccc(CO)o1", "Tgt": "E3 ubiquitin-protein ligase XIAP (Homo sapiens) (UniProt P98170)", "Label Class": "condition met"}
{"Molecule": "CC1CC/C=C\\[C@H]2OC34C=CCN(c5ccc6ccccc6c5)C(=O)[C@H]3N(CCCCCO)C(=O)[C@@H]4C2C(=O)O1 (some centres undefined)", "Tgt": "E3 ubiquitin-protein ligase XIAP (Homo sapiens) (UniProt P98170)", "Label Class": "condition not met"}
{"Molecule": "O=C1OCCC=C[C@H]2OC34C=CCN(c5ccc6ccccc6c5)C(=O)[C@H]3N(CCCCCCO)C(=O)[C@@H]4C12 (some centres undefined)", "Tgt": "E3 ubiquitin-protein ligase XIAP (Homo sapiens) (UniProt P98170)", "Label Class": "condition not met"}
{"Molecule": "Cc1ccc(N2C(=O)c3ccccc3[C@@H](C(=O)NC(C)C)[C@@H]2c2ccc(CO)cc2)nc1", "Tgt": "E3 ubiquitin-protein ligase XIAP (Homo sapiens) (UniProt P98170)", "Label Class": "condition met"}
{"Molecule": "CCCNC(=O)[C@@]1(C)c2ccccc2C(=O)N(Cc2ccc(OC(F)(F)F)cc2)[C@H]1c1ccc(CO)cc1", "Tgt": "E3 ubiquitin-protein ligase XIAP (Homo sapiens) (UniProt P98170)", "Label Class": "condition not met"}
{"Molecule": "O=C(CS)NCCCCCCNC(=O)[C@H]1C[C@H]2C(=O)N3CCC[C@H]3C(=O)N2[C@H]1c1ccc(O)cc1", "Tgt": "E3 ubiquitin-protein ligase XIAP (Homo sapiens) (UniProt P98170)", "Label Class": "condition met"}
{"Molecule": "O=C1C2C=CC(C(O)c3ccc(-c4ccccc4)s3)N(Nc3ccccc3F)C2C(=O)N1c1ccccc1 (centres undefined)", "Tgt": "E3 ubiquitin-protein ligase XIAP (Homo sapiens) (UniProt P98170)", "Label Class": "condition not met"}
{"Molecule": "CC1CC/C=C\\[C@H]2OC34C=CCN(Cn5nnc6ccccc65)C(=O)[C@H]3N(CCCO)C(=O)[C@@H]4C2C(=O)O1 (some centres undefined)", "Tgt": "E3 ubiquitin-protein ligase XIAP (Homo sapiens) (UniProt P98170)", "Label Class": "condition met"}
{"Molecule": "COCCOC(=O)N1C(=O)[C@@]2(c3cc(C#CCC(C(=O)OC)C(=O)OC)ccc31)[C@H](c1ccccc1OCCO)N1[C@H](c3ccccc3)[C@H](c3ccccc3)OC(=O)[C@H]1[C@@H]2C(=O)Nc1nc2ccccc2s1", "Tgt": "E3 ubiquitin-protein ligase XIAP (Homo sapiens) (UniProt P98170)", "Label Class": "condition not met"}
{"Molecule": "COCCOC(=O)N1C(=O)[C@@]2(c3cc(C#Cc4ccc(OC)cc4)ccc31)[C@H](c1ccc(OCCO)cc1)N1[C@H](c3ccccc3)[C@H](c3ccccc3)OC(=O)[C@H]1[C@@H]2C(=O)N1CCc2cc(OC)c(OC)cc2C1", "Tgt": "E3 ubiquitin-protein ligase XIAP (Homo sapiens) (UniProt P98170)", "Label Class": "condition not met"}
{"Molecule": "C=CCC(OC(C)=O)[C@@H]1[C@@H](N(Cc2ccc(-c3ccccc3)cc2)C(=O)c2ccc(C)cc2)c2cc(OCCCO)ccc2N1C(=O)Cc1ccc(OC)cc1 (some centres undefined)", "Tgt": "E3 ubiquitin-protein ligase XIAP (Homo sapiens) (UniProt P98170)", "Label Class": "condition not met"}
{"Molecule": "C=CC[C@]1(C(=O)O)N=C(c2ccc(OCCCO)cc2)O[C@H]1c1ccccc1CN=[N+]=[N-]", "Tgt": "E3 ubiquitin-protein ligase XIAP (Homo sapiens) (UniProt P98170)", "Label Class": "condition met"}
{"Molecule": "C=C(CCCC)C(=O)CC[C@@H](OC(=O)c1ccccc1-c1ccccc1C(=O)O)c1ccc(CO)o1", "Tgt": "E3 ubiquitin-protein ligase XIAP (Homo sapiens) (UniProt P98170)", "Label Class": "condition met"}
{"Molecule": "O=C(NCC(F)(F)F)[C@@H]1c2ccccc2C(=O)N(Cc2ccccc2)[C@H]1c1ccc(CO)cc1", "Tgt": "E3 ubiquitin-protein ligase XIAP (Homo sapiens) (UniProt P98170)", "Label Class": "condition not met"}
{"Molecule": "C=CCN1C(=O)[C@]2(Cc3ccccc31)N=C(c1ccc(OCCCO)cc1)O[C@@H]2c1ccccc1", "Tgt": "E3 ubiquitin-protein ligase XIAP (Homo sapiens) (UniProt P98170)", "Label Class": "condition not met"}
{"Molecule": "O=C(NCCN1CCOCC1)[C@@H]1c2ccccc2C(=O)N(Cc2cc(F)cc(C(F)(F)F)c2)[C@H]1c1ccc(CO)cc1", "Tgt": "E3 ubiquitin-protein ligase XIAP (Homo sapiens) (UniProt P98170)", "Label Class": "condition not met"}
{"Molecule": "Cc1ccc(C(C)CC(O)C2C=CC3C(=O)NC(=O)C3N2Nc2ccccn2)o1 (centres undefined)", "Tgt": "E3 ubiquitin-protein ligase XIAP (Homo sapiens) (UniProt P98170)", "Label Class": "condition not met"}
{"Molecule": "COc1ccccc1CN1C(=O)c2ccccc2[C@](Cc2ccccc2I)(C(=O)NCc2ccccc2)[C@@H]1c1ccc(CO)cc1", "Tgt": "E3 ubiquitin-protein ligase XIAP (Homo sapiens) (UniProt P98170)", "Label Class": "condition not met"}
{"Molecule": "CN(C)CCCC[C@@H]1NC(=O)[C@@H]2C[C@H](C(=O)NCCCCCCN)[C@H](c3ccc(O)cc3)N2C1=O", "Tgt": "E3 ubiquitin-protein ligase XIAP (Homo sapiens) (UniProt P98170)", "Label Class": "condition not met"}
{"Molecule": "Cc1ccc(S[C@]2(C(=O)NCCN3CCOCC3)CC(=O)N(C3CCCCC3)[C@@H]2c2ccc(CO)cc2)cc1", "Tgt": "E3 ubiquitin-protein ligase XIAP (Homo sapiens) (UniProt P98170)", "Label Class": "condition not met"}
